molecular target: AURKB (human) (UniProt Q96GD4); assay: radiometric filter-binding kinase assay; settings: compound 10.0 µM
Sequence (Q96GD4 whole entry, looked up): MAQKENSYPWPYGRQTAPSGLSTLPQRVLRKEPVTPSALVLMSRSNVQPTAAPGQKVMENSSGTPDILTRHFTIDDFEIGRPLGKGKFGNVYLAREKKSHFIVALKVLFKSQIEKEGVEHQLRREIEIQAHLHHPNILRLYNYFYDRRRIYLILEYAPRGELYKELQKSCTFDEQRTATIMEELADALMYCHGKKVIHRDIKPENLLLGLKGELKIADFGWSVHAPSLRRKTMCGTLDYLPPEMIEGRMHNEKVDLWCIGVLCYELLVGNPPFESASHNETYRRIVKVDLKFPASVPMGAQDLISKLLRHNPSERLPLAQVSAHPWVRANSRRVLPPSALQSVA
PARAMETER: residual activity (%)

Worked cases, residual activity given:
>>> df
                              smiles_string          parameter  readout_value
0  O=C(O)c1cc(N=Nc2ccc(S(=O)(=O)Nc3ccccn3)cc2)ccc1O  residual activity            105
1                       COC(=O)/C=C/C(=O)OC  residual activity             90

[A] Cc1ccc(-c2ccc3c(ccc4sc5c(c43)NC[C@@H](C)NC5=O)n2)cn1
[B] Oc1ccc2ccccc2c1SSc1c(O)ccc2ccccc12
[C] CCCC(CCC)C(=O)O
[D] CNc1nc(-c2ccc3c(N)n[nH]c3c2)cc(N2C[C@@H](C(=O)NC3CCCCC3)CC[C@H]2C)n1
Parameters: sort_field (residual activity), sort_dir (desc). When ranking, write the labels in the order the request describes.
C, A, D, B
